biological target: Solute carrier organic anion transporter family member 1B1 (Homo sapiens); details: chinese hamster, cho, 10 µM
Sequence (Q9Y6L6 whole entry): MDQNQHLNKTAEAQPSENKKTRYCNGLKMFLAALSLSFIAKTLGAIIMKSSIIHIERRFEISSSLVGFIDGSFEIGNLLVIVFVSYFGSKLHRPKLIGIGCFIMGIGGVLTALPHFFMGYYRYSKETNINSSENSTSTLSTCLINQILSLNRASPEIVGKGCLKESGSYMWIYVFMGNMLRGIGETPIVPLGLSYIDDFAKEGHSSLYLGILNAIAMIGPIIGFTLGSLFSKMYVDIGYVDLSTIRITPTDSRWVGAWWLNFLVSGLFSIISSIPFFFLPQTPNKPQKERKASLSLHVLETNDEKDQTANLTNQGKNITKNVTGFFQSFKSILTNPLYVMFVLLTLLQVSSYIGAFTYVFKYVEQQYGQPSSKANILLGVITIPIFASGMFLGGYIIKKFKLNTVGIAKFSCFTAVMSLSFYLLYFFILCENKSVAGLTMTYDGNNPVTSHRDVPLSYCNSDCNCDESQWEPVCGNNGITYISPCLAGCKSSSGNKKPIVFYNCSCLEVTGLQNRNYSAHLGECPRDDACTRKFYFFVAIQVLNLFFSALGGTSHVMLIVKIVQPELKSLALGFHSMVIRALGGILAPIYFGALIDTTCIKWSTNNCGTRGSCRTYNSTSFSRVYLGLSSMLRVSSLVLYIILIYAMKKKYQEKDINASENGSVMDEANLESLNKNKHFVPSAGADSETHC
Below, each entry is listed with its recorded residual activity.
Please answer using the number first and the unit second.

>>> print(df.to_string())
                                   compound                           measured_target  result
0  CC(C)NC(=N)NC(=N)Nc1ccc(Cl)cc1.Cl [PROGUANIL HYDROCHLORIDE]  Solute carrier organic anion transporter family member 1B1 (Homo sapiens)  77.71%
1      C[C@]12CC[C@@H](O)C[C@H]1CCc1ccccc12  Solute carrier organic anion transporter family member 1B1 (Homo sapiens)  77.88%
2  O=C(O)c1cccnc1Nc1cccc(C(F)(F)F)c1 [NIFLUMIC ACID]  Solute carrier organic anion transporter family member 1B1 (Homo sapiens)  79.63%

Okay, now this compound:
Prompt line: // fetch residual activity for CC(=O)N[C@@H](CS)C(=O)O [ACETYLCYSTEINE] ; system: Solute carrier organic anion transporter family member 1B1 (Homo sapiens)
Response line: 82.21%
